- assay overview: Oral bioavailability in CD-1 mouse at 10 mg/kg and measured upto 24 hrs by LC-MS/MS analysis
- Type: ADME, organism-based
- applied conditions: in vivo
value kind: bioavailability (%)
Give the value, in units of %, as a plain number.

Q: Respond only with bioavailability recorded for CCOC(=O)N1CCC(c2ccc(-c3cc(C(=O)OCC(=O)N(C)C)cc4cc(-c5ccc(C(F)(F)F)cc5)ccc34)cc2)CC1
Ans: 6.9

---

- assay overview: Cmax in Wistar rat plasma at 1 mg/kg, ip and measured upto 24 hrs
- Format: ADME, organism-based
- Parameters: time < 24 hrs, dose 1 mg/kg, route ip
value kind: Cmax (nM)
// units = nM; emit number, no label

Q: Look up Cmax of O=C(O)c1cc(-c2ccc([C@]3(O)[C@@H]4CNC[C@H]3C4)cc2)c2ccc(-c3ccc(C(F)(F)F)cc3)cc2c1 and report it.
Ans: 500
